Hey, just so you know, these numbers are from patent US20120165306A1.

target: Cdk9/cyclinT1 (Homo sapiens); test: Cdk9/cyclinT1 kinase assay (IMAP or Alpha Screen protocol)
Recorded IC50 for the following compounds

Please review the entries below; each comes with its answer.
>>> test_result("C[C@@H](Nc1cncc(-c2cc(NC(=O)[C@@H]3CCCNC3)ncc2Cl)n1)C1CCCCC1")
"< 8 nM"
>>> test_result("O=C(Nc1cc(-c2cncc(NCc3ccc(F)cc3)n2)c(Cl)cn1)[C@@H]1CCCNC1")
"< 8 nM"
>>> test_result("CS(=O)(=O)N[C@@H]1CC[C@H](C(=O)Nc2cc(-c3cncc(NCC4CCOCC4)n3)c(Cl)cn2)C1")
"< 8 nM"

Consider the additional compound presented here.
Q: Return IC50 (reported value) for this compound: C[C@H](Nc1cncc(-c2cc(NC(=O)[C@@H]3CCCNC3)ncc2Cl)n1)C1CCCCC1
Result: < 8 nM

* * *

Recorded IC50 for the following compounds
target: Cdk9/cyclinT1 (Homo sapiens, UniProt P50750); test: Cdk9/cyclinT1 kinase assay (IMAP or Alpha Screen protocol)
Sequence (P50750 whole entry): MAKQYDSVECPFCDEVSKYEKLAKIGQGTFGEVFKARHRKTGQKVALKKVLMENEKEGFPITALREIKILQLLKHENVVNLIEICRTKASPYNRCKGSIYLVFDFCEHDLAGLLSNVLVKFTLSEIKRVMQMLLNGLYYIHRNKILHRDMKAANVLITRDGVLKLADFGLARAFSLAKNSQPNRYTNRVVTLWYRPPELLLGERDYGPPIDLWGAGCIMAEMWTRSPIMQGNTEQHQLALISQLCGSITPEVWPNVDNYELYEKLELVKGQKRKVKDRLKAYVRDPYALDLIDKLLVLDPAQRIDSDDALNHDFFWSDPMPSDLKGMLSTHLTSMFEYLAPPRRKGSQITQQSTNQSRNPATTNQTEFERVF
Sequence (O60563 whole entry partner): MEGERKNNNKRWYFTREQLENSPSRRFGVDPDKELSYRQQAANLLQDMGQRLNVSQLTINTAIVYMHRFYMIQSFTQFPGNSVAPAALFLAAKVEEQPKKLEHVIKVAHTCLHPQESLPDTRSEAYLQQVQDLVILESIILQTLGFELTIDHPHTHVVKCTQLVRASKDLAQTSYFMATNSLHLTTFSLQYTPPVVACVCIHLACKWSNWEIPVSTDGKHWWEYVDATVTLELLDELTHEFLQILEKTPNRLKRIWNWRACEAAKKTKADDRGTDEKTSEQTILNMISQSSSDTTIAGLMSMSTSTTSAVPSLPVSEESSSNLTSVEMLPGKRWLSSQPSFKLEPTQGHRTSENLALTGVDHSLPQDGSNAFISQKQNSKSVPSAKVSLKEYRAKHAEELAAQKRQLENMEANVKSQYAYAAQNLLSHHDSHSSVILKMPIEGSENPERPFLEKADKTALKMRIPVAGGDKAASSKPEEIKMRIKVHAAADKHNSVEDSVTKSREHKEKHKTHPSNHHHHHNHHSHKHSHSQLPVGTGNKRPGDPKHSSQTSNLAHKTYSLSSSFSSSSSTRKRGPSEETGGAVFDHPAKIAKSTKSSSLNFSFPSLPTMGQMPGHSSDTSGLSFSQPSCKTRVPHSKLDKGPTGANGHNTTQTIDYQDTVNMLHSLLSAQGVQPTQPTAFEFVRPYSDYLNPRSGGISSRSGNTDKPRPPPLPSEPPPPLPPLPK

Please review the entries below; each comes with its answer.
>>> test_result("Cc1ncc(NCC2CCOCC2)nc1-c1cc(NC(=O)[C@@H]2CCCNC2)ncc1Cl [Example 24]")
"< 8 nM"
>>> test_result("O=C(Nc1cc(-c2cncc(NCc3cccc(OC(F)F)c3)n2)c(Cl)cn1)[C@@H]1CCCNC1 [Example 18]")
"< 8 nM"
>>> test_result("CS(=O)(=O)N1CCC[C@H](C(=O)Nc2cc(-c3cncc(NCC4CCOCC4)n3)c(Cl)cn2)C1 [Example 6]")
"< 8 nM"
>>> test_result("CN1CC(C(=O)Nc2cc(-c3cncc(NCC4CCOCC4)n3)c(Cl)cn2)CC1=O (stereo not drawn) [Example 68]")
"< 8 nM"
>>> test_result("COCC(=O)N1CCC[C@H](C(=O)Nc2cc(-c3cncc(NCC4CCOCC4)n3)c(Cl)cn2)C1 [Example 47]")
"< 8 nM"
>>> test_result("O=C(Nc1cc(-c2cncc(NCC3CCCOC3)n2)c(Cl)cn1)[C@@H]1CCCNC1 (stereo partly drawn) [Example 26]")
"< 8 nM"
>>> test_result("C[C@H](O)CNc1cncc(-c2cc(NC(=O)[C@@H]3CCCNC3)ncc2Cl)n1 [Example 29]")
"37 nM"
>>> test_result("COC(=O)N[C@@H]1CC[C@H](C(=O)Nc2cc(-c3cncc(NCC4CCOCC4)n3)c(Cl)cn2)C1 [Example 53]")
"< 8 nM"

Q: Return IC50 (reported value) for this compound: O=C(Nc1cc(-c2cncc(NCC3CCOCC3)n2)c(Cl)cn1)[C@@H]1CCCNC1 [Example 9]
Result: < 8 nM

* * *

Recorded IC50 for the following compounds
biological target: Cdk9/cyclinT1 (Homo sapiens); assay: Cdk9/cyclinT1 kinase assay (IMAP or Alpha Screen protocol)

Please review the entries below; each comes with its answer.
>>> test_result("O=C(Cc1cccnc1)Nc1cc(-c2cncc(NCC3CCOCC3)n2)c(Cl)cn1 [Example 57]")
"< 8 nM"
>>> test_result("COC(=O)N[C@@H]1CC[C@@H](C(=O)Nc2cc(-c3cncc(NCC4CCOCC4)n3)c(Cl)cn2)C1 [Example 55]")
"< 8 nM"
>>> test_result("CC(=O)N1CCC[C@H](C(=O)Nc2cc(-c3cncc(NCC4CCOCC4)n3)c(Cl)cn2)C1 [Example 48]")
"< 8 nM"
>>> test_result("O=C(Nc1cc(-c2cncc(NCc3cncc(F)c3)n2)c(Cl)cn1)[C@@H]1CCCNC1 [Example 16]")
"< 8 nM"
>>> test_result("CS(=O)(=O)N[C@H]1CC[C@@H](C(=O)Nc2cc(-c3cncc(NCC4CCOCC4)n3)c(Cl)cn2)C1 [Example 51]")
"< 8 nM"
>>> test_result("O=C(Nc1cc(-c2cncc(NCC3CCOCC3)n2)c(Cl)cn1)C1CCCC1 [Example 13]")
"15 nM"
>>> test_result("O=C(Nc1cc(-c2cncc(NCc3ccccc3F)n2)c(Cl)cn1)[C@@H]1CCCNC1 [Example 14]")
"< 8 nM"
>>> test_result("O=C(Nc1cc(-c2cncc(NCC3CC3)n2)c(Cl)cn1)[C@@H]1CCCNC1 [Example 39]")
"17 nM"

Q: Recall the reported IC50 of CC(C)C(=O)Nc1cc(-c2cncc(NCC3CCOCC3)n2)c(Cl)cn1 [Example 12] on Cdk9/cyclinT1 (Homo sapiens) and write it down.
Result: < 8 nM

Q: Recall the reported IC50 of O=C(Nc1cc(-c2cncc(NCC3CCOCC3)n2)c(Cl)cn1)[C@H]1CNC[C@H]1F [Example 64] on Cdk9/cyclinT1 (Homo sapiens) and write it down.
Result: < 8 nM
